- System: T-47D spheroids with HUVEC/MSC, viability
- Test summary: Anticancer human tumor T-47D cell line growth inhibition [PI3K];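 also: spheroids exposed to agents for seven days before reading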
- Measurement conditions: curve of first compound; second compound 10 µM
pIC50: −log10 of the molar value.
Measured pIC50 accompanies every entry in the list below.

>  <Compound>
Cn1nccc1Nc1nccc(-c2ccn(C(CO)c3ccc(Cl)c(F)c3)c(=O)c2)n1 (stereo unspecified) + CC(Nc1ncnc2nc[nH]c12)c1cc2cccc(Cl)c2c(=O)n1-c1ccccc1

>  <pIC50>
< 5.00

$$$$

Moving on to the next compound.
Q) Item CC(C)n1nc(-c2ccc3oc(N)nc3c2)c2c(N)ncnc21 + Cc1nc(NC(=O)N2CCCC2C(N)=O)sc1-c1ccnc(C(C)(C)C(F)(F)F)c1 : provide pIC50
A) > 9.50

====

- Test system: T-47D spheroids with HUVEC/MSC, viability
- Test summary: Anticancer human tumor T-47D cell line growth inhibition [PI3K]; active means viability on the fitted dose curve at most 10% of control; inactive means the rest;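 also: spheroids exposed to agents for seven days before reading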
- Measurement conditions: second compound 1 µM; first compound 1 µM
- Description: Combinatorial screen of targeted agents with the PI3K inhibitors inavolisib, alpelisib, duvelisib, and copanlisib in multi-cell type tumor spheroids A high-throughput screen of multi-cell type tumor spheroids was designed to identify active combinations of targeted small molecules and PI3K pathway inhibitors. […] Compounds. […] If the clinical Cmax for an agent had not been determined, the highest concentration tested was 10 microM. […]
Answer with one of the outcomes given here: y for active, n for inactive

>  <Compound>
CC1(C)CCC(CN2CCN(c3ccc(C(=O)NS(=O)(=O)c4ccc(NCC5CCOCC5)c([N+](=O)[O-])c4)c(Oc4cnc5[nH]ccc5c4)c3)CC2)=C(c2ccc(Cl)cc2)C1 + Cc1nc(NC(=O)N2CCCC2C(N)=O)sc1-c1ccnc(C(C)(C)C(F)(F)F)c1

>  <Qualitative label>
n

$$$$
>  <Compound>
CC(C)NCC(C(=O)N1CCN(c2ncnc3c2C(C)CC3O)CC1)c1ccc(Cl)cc1 (stereo not given) + Cc1nc(NC(=O)N2CCCC2C(N)=O)sc1-c1ccnc(C(C)(C)C(F)(F)F)c1

>  <Qualitative label>
n

$$$$
>  <Compound>
Cn1nccc1Nc1nccc(-c2ccn(C(CO)c3ccc(Cl)c(F)c3)c(=O)c2)n1 (stereo not given) + Cc1nc(NC(=O)N2CCCC2C(N)=O)sc1-c1ccnc(C(C)(C)C(F)(F)F)c1

>  <Qualitative label>
n

$$$$
>  <Compound>
CC1(C)CCC(CN2CCN(c3ccc(C(=O)NS(=O)(=O)c4ccc(NCC5CCOCC5)c([N+](=O)[O-])c4)c(Oc4cnc5[nH]ccc5c4)c3)CC2)=C(c2ccc(Cl)cc2)C1 + COc1c(OCCCN2CCOCC2)ccc2c3n(c(=NC(=O)c4cnc(N)nc4)nc12)CCN3

>  <Qualitative label>
y

$$$$
>  <Compound>
Cn1nccc1Nc1nccc(-c2ccn(C(CO)c3ccc(Cl)c(F)c3)c(=O)c2)n1 (stereo not given) + CC(Nc1ccc2c(c1)OCCn1cc(N3C(=O)OCC3C(F)F)nc1-2)C(N)=O

>  <Qualitative label>
n

$$$$
>  <Compound>
C=CC(=O)N1CCN(c2nc(=O)n(-c3c(C)ccnc3C(C)C)c3nc(-c4c(O)cccc4F)c(F)cc23)C(C)C1 (stereo not given) + CC(Nc1ncnc2nc[nH]c12)c1cc2cccc(Cl)c2c(=O)n1-c1ccccc1

>  <Qualitative label>
n

$$$$
>  <Compound>
CNC(=O)c1ccc(N2C(=S)N(c3ccc(C#N)c(C(F)(F)F)c3)C(=O)C2(C)C)cc1F + COc1c(OCCCN2CCOCC2)ccc2c3n(c(=NC(=O)c4cnc(N)nc4)nc12)CCN3

>  <Qualitative label>
y

$$$$
>  <Compound>
CCN1CCN(Cc2ccc(Nc3ncc(F)c(-c4cc(F)c5nc(C)n(C(C)C)c5c4)n3)nc2)CC1 + CC(Nc1ncnc2nc[nH]c12)c1cc2cccc(Cl)c2c(=O)n1-c1ccccc1

>  <Qualitative label>
n

$$$$

Q) // param item: CNC(=O)c1ccc(N2C(=S)N(c3ccc(C#N)c(C(F)(F)F)c3)C(=O)C2(C)C)cc1F + CC(Nc1ccc2c(c1)OCCn1cc(N3C(=O)OCC3C(F)F)nc1-2)C(N)=O ; yields the recorded call
A) n

Q) // param item: CC1(C)CCC(Nc2ncc(C(F)(F)F)c(-c3c[nH]c4c(P(C)(C)=O)c(C#N)ccc34)n2)CN1 (stereo not given) + CC(Nc1ncnc2nc[nH]c12)c1cc2cccc(Cl)c2c(=O)n1-c1ccccc1 ; yields the recorded call
A) n

====

Measured pIC50 accompanies every entry in the list below.
- Test system: T-47D spheroids with HUVEC/MSC, viability
- Test summary: Anticancer human tumor T-47D cell line growth inhibition [PI3K];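 also: spheroids exposed to agents for seven days before reading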
- Measurement conditions: curve of first compound; second compound 0.0316 µM
- Source text: Combinatorial screen of targeted agents with the PI3K inhibitors inavolisib, alpelisib, duvelisib, and copanlisib in multi-cell type tumor spheroids A high-throughput screen of multi-cell type tumor spheroids was designed to identify active combinations of targeted small molecules and PI3K pathway inhibitors. […] Compounds. […] If the clinical Cmax for an agent had not been determined, the highest concentration tested was 10 microM. […]
pIC50: −log10 of the molar value.

Q) Item CC(C)NCC(C(=O)N1CCN(c2ncnc3c2C(C)CC3O)CC1)c1ccc(Cl)cc1 (stereo not drawn) + CC(Nc1ncnc2nc[nH]c12)c1cc2cccc(Cl)c2c(=O)n1-c1ccccc1 : provide pIC50
A) < 5.00

Q) Item C#Cc1c(F)ccc2cc(O)cc(-c3ncc4c(N5CC6CCC(C5)N6)nc(OCC56CCCN5CC(F)C6)nc4c3F)c12 (stereo not drawn) + COc1c(OCCCN2CCOCC2)ccc2c3n(c(=NC(=O)c4cnc(N)nc4)nc12)CCN3 : provide pIC50
A) < 5.00

====

Measured IC50 accompanies every entry in the list below.
- Tested on: T-47D spheroids with HUVEC/MSC, viability
- Test summary: Anticancer human tumor T-47D cell line growth inhibition [PI3K];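 also: spheroids exposed to agents for seven days before reading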
- Measurement conditions: curve of first compound; second compound 0.316 µM
- Text: Combinatorial screen of targeted agents with the PI3K inhibitors inavolisib, alpelisib, duvelisib, and copanlisib in multi-cell type tumor spheroids A high-throughput screen of multi-cell type tumor spheroids was designed to identify active combinations of targeted small molecules and PI3K pathway inhibitors. […] Compounds. […] If the clinical Cmax for an agent had not been determined, the highest concentration tested was 10 microM. […]

Worked cases, answers included:
>  <Molecule>
CC1(C)CCC(CN2CCN(c3ccc(C(=O)NS(=O)(=O)c4ccc(NCC5CCOCC5)c([N+](=O)[O-])c4)c(Oc4cnc5[nH]ccc5c4)c3)CC2)=C(c2ccc(Cl)cc2)C1 + CC(Nc1ncnc2nc[nH]c12)c1cc2cccc(Cl)c2c(=O)n1-c1ccccc1

>  <Outcome measure>
IC50

>  <Measurement>
> 10 µM

$$$$
>  <Molecule>
Cn1cnc2c(F)c(Nc3ccc(Br)cc3Cl)c(C(=O)NOCCO)cc21 + Cc1nc(NC(=O)N2CCCC2C(N)=O)sc1-c1ccnc(C(C)(C)C(F)(F)F)c1

>  <Outcome measure>
IC50

>  <Measurement>
> 3 µM

$$$$
>  <Molecule>
CCCS(=O)(=O)Nc1ccc(F)c(C(=O)c2c[nH]c3ncc(-c4ccc(Cl)cc4)cc23)c1F + CC(Nc1ccc2c(c1)OCCn1cc(N3C(=O)OCC3C(F)F)nc1-2)C(N)=O

>  <Outcome measure>
IC50

>  <Measurement>
5.04 µM

$$$$
>  <Molecule>
CNC(=O)c1ccc(N2C(=S)N(c3ccc(C#N)c(C(F)(F)F)c3)C(=O)C2(C)C)cc1F + CC(Nc1ccc2c(c1)OCCn1cc(N3C(=O)OCC3C(F)F)nc1-2)C(N)=O

>  <Outcome measure>
IC50

>  <Measurement>
> 10 µM

$$$$
>  <Molecule>
CNC(=O)c1ccc(N2C(=S)N(c3ccc(C#N)c(C(F)(F)F)c3)C(=O)C2(C)C)cc1F + COc1c(OCCCN2CCOCC2)ccc2c3n(c(=NC(=O)c4cnc(N)nc4)nc12)CCN3

>  <Outcome measure>
IC50

>  <Measurement>
< 0.0316 µM

$$$$
>  <Molecule>
CC1(C)CCC(Nc2ncc(C(F)(F)F)c(-c3c[nH]c4c(P(C)(C)=O)c(C#N)ccc34)n2)CN1 (stereo unspecified) + CC(Nc1ncnc2nc[nH]c12)c1cc2cccc(Cl)c2c(=O)n1-c1ccccc1

>  <Outcome measure>
IC50

>  <Measurement>
> 10 µM

$$$$
>  <Molecule>
CC(C)n1nc(-c2ccc3oc(N)nc3c2)c2c(N)ncnc21 + Cc1nc(NC(=O)N2CCCC2C(N)=O)sc1-c1ccnc(C(C)(C)C(F)(F)F)c1

>  <Outcome measure>
IC50

>  <Measurement>
0.0525 µM

$$$$
>  <Molecule>
CC(Cn1ccc(-c2ccc(C#N)c(Cl)c2)n1)NC(=O)c1cc(C(C)O)[nH]n1 (stereo unspecified) + CC(Nc1ncnc2nc[nH]c12)c1cc2cccc(Cl)c2c(=O)n1-c1ccccc1

>  <Outcome measure>
IC50

>  <Measurement>
> 10 µM

$$$$

Q) Item C#Cc1c(F)ccc2cc(O)cc(-c3ncc4c(N5CC6CCC(C5)N6)nc(OCC56CCCN5CC(F)C6)nc4c3F)c12 (stereo unspecified) + Cc1nc(NC(=O)N2CCCC2C(N)=O)sc1-c1ccnc(C(C)(C)C(F)(F)F)c1 : provide IC50
A) > 10 µM

Q) Item CC1(C)CCC(Nc2ncc(C(F)(F)F)c(-c3c[nH]c4c(P(C)(C)=O)c(C#N)ccc34)n2)CN1 (stereo unspecified) + COc1c(OCCCN2CCOCC2)ccc2c3n(c(=NC(=O)c4cnc(N)nc4)nc12)CCN3 : provide IC50
A) < 0.0316 µM

Q) Item CC(C)NCC(C(=O)N1CCN(c2ncnc3c2C(C)CC3O)CC1)c1ccc(Cl)cc1 (stereo unspecified) + COc1c(OCCCN2CCOCC2)ccc2c3n(c(=NC(=O)c4cnc(N)nc4)nc12)CCN3 : provide IC50
A) < 0.0316 µM
